Biological target: MOZ PHD1/2 fingers (aa 207-318) (human, UniProt Q92794 207-318)
Sequence (Q92794 207-318): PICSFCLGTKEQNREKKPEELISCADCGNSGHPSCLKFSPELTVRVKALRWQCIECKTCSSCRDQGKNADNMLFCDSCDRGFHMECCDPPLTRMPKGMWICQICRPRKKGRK
Test: other fluorescence titration

BINDER	ENDPOINT UNIT	Kd
ARTKQTARKSTG (acetyl-lysine at 9) [histone H3 peptide acetylated at Lys9 (length not stated for the experiment)]	µM	1.5
